# In vitro degradation Mouse lung S9 per entry
test: Lipid degradability by mouse lung S9 in vitro; type: in vitro ADME; conditions: 2 μM lipid, 2.4 mg/ml lung S9, pH 7.4, 37° C., time points up to 48 hr
Quick reminder: number only, in h, skip the unit.

Example results:
# STRUCTURE_AS_SMILES, In vitro degradation Mouse lung S9 (h)
data = [
    ("CCCCCCCCOC(=O)CC(CC(=O)OCCCCCCCC)(OC(=O)CCC(=O)Oc1c(OC)cc(C(=O)OCCCN(C)C)cc1OC)C(=O)OCCCCCCCC", 16.6),
    ("CCCCC/C=C/COC(=O)CC(CC(=O)OC/C=C/CCCCC)(OC(=O)CCC(=O)Oc1c(OC)cc(C(=O)OCCCN(C)C)cc1OC)C(=O)OC/C=C/CCCCC", 6.8),
    ("CCCCCCCCOC(=O)CC(CC(=O)OCCCCCCCC)(OC(=O)CCC(=O)Oc1c(OC)cc(/C=C/C(=O)OCCCN(C)C)cc1OC)C(=O)OCCCCCCCC", 36),
    ("CCCCCC#CCOC(=O)CC(CC(=O)OCC#CCCCCC)(OC(=O)CCC(=O)Oc1c(OC)cc(C(=O)OCCCN(C)C)cc1OC)C(=O)OCC#CCCCCC", 1.3),
]

Query: Item under review: `CCCCCCCCOC(=O)CC(CC(=O)OCCCCCCCC)(OC(=O)CCC(=O)Oc1c(OC)cc(C(=O)OCCN(C)C)cc1OC)C(=O)OCCCCCCCC` . Reported In vitro degradation Mouse lung S9?
Reply: 16.2
